# Target of assay: AMP-activated protein kinase, AMPK (Homo sapiens) (UniProt P54646+O43741+P54619+Q9UGJ0+Q9Y478+Q13131+Q9UGI9)
# Assay text: AMP-dependent Kinase enzyme assay. An in vitro enzyme assay that detects ADP turnover that is directly proportional to AMPK activity. This uses naive AMPK that is activated during the assay with MK-8722
# Format: functional
# Parameters: scale not given: direction of the effect not stated beside the values
# Test conditions: 30 µM
Provide the reported Percent Effect of each item.
One number for each entry, in %.

Some compounds with recorded Percent Effect:
- Compound: "CN(C)c1nc(N)nc(CN2CCC(c3nc4ccccc4o3)CC2)n1"
  Property name: "Percent Effect"
  Value units: "%"
  Result: -11.3
- Compound: "CN(CC(=O)NCC(F)(F)F)Cc1cccc2c1OCCO2"
  Property name: "Percent Effect"
  Value units: "%"
  Result: 3.65
- Compound: "Cc1nc(C)n(CC2CCCN2c2ncnc3sc(C)c(C)c23)n1 (configuration not stated)"
  Property name: "Percent Effect"
  Value units: "%"
  Result: -3.96
- Compound: "Cc1cccc(-c2nccnc2C2CCCN(C)C2)c1 (configuration not stated)"
  Property name: "Percent Effect"
  Value units: "%"
  Result: 11.8
- Compound: "CCN(CC(=O)N(C)C)C(=O)c1ccc(-c2nc(C)cs2)cc1"
  Property name: "Percent Effect"
  Value units: "%"
  Result: 8.68

Hi team, please reply with Percent Effect for each item in this list.
1. Cc1nc(COC(=O)c2cccc3c2OCCO3)no1
2. CCCn1nc(C)c(CN2CC3(CCOC3)CCC2=O)c1C (configuration not stated)
3. CN(C)Cc1cn(-c2ccccc2C(=O)NCCC2CCCN2C)cn1 (configuration not stated)

A)
[-12.1, 1.7, -16.8]
